biological target: Lck (Homo sapiens, UniProt P06239); construct: Kinases are expressed as either kinase domains or full length constructs; made in house; test: Kinase inhibition assay (33P transfer), Lck; format: biochemical; conditions: Table 3, class symbols; read-out: Lck-1
Sequence (P06239 whole entry, species assumed, the tested form may be a part): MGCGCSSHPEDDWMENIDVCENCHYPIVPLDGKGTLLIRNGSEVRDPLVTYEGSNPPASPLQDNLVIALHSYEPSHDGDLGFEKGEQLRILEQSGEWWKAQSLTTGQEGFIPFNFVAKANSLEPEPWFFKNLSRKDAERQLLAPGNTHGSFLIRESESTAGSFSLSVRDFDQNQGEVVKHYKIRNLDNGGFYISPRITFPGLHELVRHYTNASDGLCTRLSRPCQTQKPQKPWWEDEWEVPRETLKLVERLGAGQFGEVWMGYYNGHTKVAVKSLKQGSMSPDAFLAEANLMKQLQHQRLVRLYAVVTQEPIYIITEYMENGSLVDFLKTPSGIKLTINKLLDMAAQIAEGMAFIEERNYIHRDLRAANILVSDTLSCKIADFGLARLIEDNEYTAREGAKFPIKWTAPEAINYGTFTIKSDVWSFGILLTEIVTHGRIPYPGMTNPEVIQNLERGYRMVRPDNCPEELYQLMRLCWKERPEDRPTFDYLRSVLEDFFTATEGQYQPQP
Would you kindly list IC50 for each of these compounds?

These recorded examples may help you get a feel for the data.
[
  {
    "Compound": "c1ccc(Cn2ncc3cc(Nc4ncnc(NCCN5CCCC5)n4)ccc32)cc1 [Compound 871]",
    "Measurement Type": "IC50",
    "Obs Value": "> 10.9 µM"
  },
  {
    "Compound": "CN(c1ccc(Cl)c(Cl)c1)c1ncnc(Nc2ccc3c(cnn3Cc3ccccc3)c2)n1 [Compound 903]",
    "Measurement Type": "IC50",
    "Obs Value": "> 9.45 µM"
  },
  {
    "Compound": "COc1ccc(Nc2ncnc(N(C)c3ccc(F)cc3F)n2)cc1OC [Compound 801]",
    "Measurement Type": "IC50",
    "Obs Value": "1.07 to 6.43 µM"
  }
]

# context switch: different compound, same IC50
Looking up COc1cc(C)c(Nc2ncnc(Nc3cc(-c4ccc(C)cc4)n[nH]3)n2)cc1OC [Compound 1127] , I found its IC50 recorded as > 10.8 µM
